# reported IC50; entries follow
- target.under.test: human Y1 receptor (Homo sapiens, UniProt P25929)
- Construct: host or cells: SK-N-MC cells (thawed, needle-disrupted cells)
- Sequence (P25929 whole entry): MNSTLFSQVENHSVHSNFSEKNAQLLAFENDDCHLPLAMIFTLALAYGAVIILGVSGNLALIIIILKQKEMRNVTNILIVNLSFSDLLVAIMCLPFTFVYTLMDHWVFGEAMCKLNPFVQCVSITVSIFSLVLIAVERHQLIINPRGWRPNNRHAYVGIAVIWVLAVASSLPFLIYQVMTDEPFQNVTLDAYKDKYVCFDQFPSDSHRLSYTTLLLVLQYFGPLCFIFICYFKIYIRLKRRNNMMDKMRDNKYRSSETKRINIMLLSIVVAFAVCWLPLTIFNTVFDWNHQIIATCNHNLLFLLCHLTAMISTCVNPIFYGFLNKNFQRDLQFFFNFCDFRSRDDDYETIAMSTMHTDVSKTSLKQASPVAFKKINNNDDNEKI
- measurement.description: [125I]NPY receptor binding assay on SK-N-MC cells

substance	target.under.test	test.result
Ac-ARAALNAATRQRY-NH2 [Ac[A24,26,27,30,31,L28]NPY24-36]	human Y1 receptor (Homo sapiens, UniProt P25929)	> 1000 nM

Consider the additional substance presented here.
Sample Ac-LRHYLNLLTRQRY-NH2 [Ac[L28,L31]NPY24-36] ; IC50 observed: > 100 nM

---

- target.under.test: human Y2 receptor (Homo sapiens, UniProt P49146)
- Construct: host or cells: SMS-MSN cells (thawed, needle-disrupted cells)
- Sequence (P49146 1-381): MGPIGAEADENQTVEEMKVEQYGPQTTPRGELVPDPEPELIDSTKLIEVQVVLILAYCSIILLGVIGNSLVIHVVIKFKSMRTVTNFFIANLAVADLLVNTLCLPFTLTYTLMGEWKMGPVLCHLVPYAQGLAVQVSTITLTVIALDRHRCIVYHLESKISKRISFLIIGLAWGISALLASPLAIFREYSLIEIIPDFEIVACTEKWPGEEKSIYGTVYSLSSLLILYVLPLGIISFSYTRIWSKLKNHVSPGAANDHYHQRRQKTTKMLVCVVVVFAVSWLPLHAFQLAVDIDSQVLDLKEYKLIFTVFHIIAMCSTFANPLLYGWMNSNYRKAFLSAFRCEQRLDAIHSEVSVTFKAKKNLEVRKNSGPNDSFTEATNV
- measurement.description: [125I]NPY receptor binding assay on SMS-MSN cells
property.measured: IC50 (nM)
// units = nM; emit number, no label

Entry Ac-ARHYLNLLTRQRY-NH2 [Ac[A24,L28,L31]NPY24-36] — recorded IC50 = 19.3
